Recorded Kb values for a group of compounds are listed next.
- tgt: Glutamate NMDA receptor (Rattus norvegicus) (UniProt P35439+Q00959+Q00960+Q00961+Q62645+Q8VHN2+Q9R1M7)
- test.description: Evaluated to antagonize NMDA responses in a rat cortical slice preparations
- Format: functional
Please reply with the bare figure in µM and do not write the unit itself.

Some solved cases for reference:
O=S(=O)(Nc1c(-c2ccccc2)c(O)nc2cc(Cl)ccc12)c1ccccc1 = 2.9
Oc1nc2cc(Cl)ccc2c(CCc2nnn[nH]2)c1-c1ccccc1 = 1.6

--- query ---
State its Kb: CS(=O)(=O)Nc1c(-c2ccccc2)c(O)nc2cc(Cl)ccc12
2.2
